- Assay target: Cytochrome P450 3A4 (Homo sapiens, UniProt P08684); also: in other assays of this panel Not Active means under 50% inhibition at 10 µM
- Sequence (P08684 whole entry): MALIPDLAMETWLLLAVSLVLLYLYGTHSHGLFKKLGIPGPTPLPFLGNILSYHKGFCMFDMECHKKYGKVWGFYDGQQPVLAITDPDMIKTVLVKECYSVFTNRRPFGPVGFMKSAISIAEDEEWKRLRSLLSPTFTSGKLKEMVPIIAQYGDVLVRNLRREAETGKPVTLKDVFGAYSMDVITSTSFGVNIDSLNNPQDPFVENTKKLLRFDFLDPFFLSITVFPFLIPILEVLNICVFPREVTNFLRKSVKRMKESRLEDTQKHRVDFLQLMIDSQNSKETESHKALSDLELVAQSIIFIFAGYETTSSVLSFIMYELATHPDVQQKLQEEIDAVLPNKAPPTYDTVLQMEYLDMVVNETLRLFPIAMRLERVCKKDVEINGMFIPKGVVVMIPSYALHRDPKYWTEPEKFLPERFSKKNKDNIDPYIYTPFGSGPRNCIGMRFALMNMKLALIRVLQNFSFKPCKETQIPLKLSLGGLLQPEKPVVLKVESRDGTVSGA
- Particulars: bti-tn-5b1-4
Quantity: Ki

Solved cases below.
- Compound: "Nc1ccc(C(=O)O)c(O)c1 [AMINOSALICYLIC ACID]"
  Recorded value: "Not Active"
- Compound: "CN1C(=O)OC(C)(C)C1=O [TRIMETHADIONE]"
  Recorded value: "Not Active"
- Compound: "CCO [ALCOHOL]"
  Recorded value: "Not Active"
- Compound: "Cl.NC[C@H]1CC[C@H](C(=O)Oc2ccc(CCC(=O)O)cc2)CC1 [CETRAXATE HYDROCHLORIDE]"
  Recorded value: "Not Active"

For the 4 compounds below, give their Ki values.
1. Cc1cc(C(C)(C)C)c(O)c(C)c1CC1=NCCN1 [OXYMETAZOLINE]
2. Oc1ccccc1 [PHENOL]
3. Cc1c(N)nc([C@H](CC(N)=O)NC[C@H](N)C(N)=O)nc1C(=O)N[C@H](C(=O)N[C@H](C)[C@@H](O)[C@H](C)C(=O)N[C@H](C(=O)NCCc1nc(-c2nc(C(=O)NCCC[S+](C)C)cs2)cs1)[C@@H](C)O)[C@@H](O[C@@H]1O[C@@H](CO)[C@@H](O)[C@H](O)[C@@H]1O[C@H]1O[C@H](CO)[C@@H](O)[C@H](OC(N)=O)[C@@H]1O)c1c[nH]cn1.[Br-] [BLEOMYCIN A2]
4. Nc1nc(N)c2nc(CNc3ccc(C(=O)N[C@@H](CCC(=O)O)C(=O)O)cc3)cnc2n1 [AMINOPTERIN]

Result ::
Not Active
Not Active
Not Active
Not Active
